Source listed as a melting point compilation (Tetko et al.).

Recorded melting point for the following compounds

Compound: Cc1nc2ccnn2c(C)c1CCC(=O)O
melting point: 223 to 225 °C

Compound: Cc1ncsc1-c1cnco1
melting point: 96 to 98 °C

Compound: CCOC(=O)Cn1[nH]cc(C(=O)OCC)c1=N
melting point: 72 to 74 °C

Compound: COc1ccccc1C(=O)CC#N
melting point: 71 to 75 °C

Compound: O=C(O)c1ccc(S(=O)(=O)C2CCCC2)cc1
melting point: 199 to 201 °C

Compound: COc1ccc(C2CCN2S(=O)(=O)c2ccc(C)cc2)cc1 (configuration not stated)
melting point: 102 to 104 °C

Compound: CC(=O)N1CCCc2cc(Br)ccc21
melting point: 59 to 61 °C

Compound: CC(C)OCc1cc(C(=O)O)ccc1F
melting point: 84 to 86 °C

Compound: Sc1nnnn1-c1ccc2c(c1)OCO2
melting point: 157 to 159 °C

Compound: Cc1ccccc1Sc1ccc(C(=O)O)cc1
melting point: 178 to 180 °C

Compound: Nc1cnc(Cl)cc1C(=O)O
melting point: 289 to 291 °C

Compound: COc1ccc2nc(C3CC3)cc(C(=O)O)c2c1
melting point: 219 to 221 °C

Compound: CC1C(O)CC2CC1C2(C)C (configuration not stated)
melting point: 51 to 53 °C

Compound: FC(F)(F)Cn1cnnc1S
melting point: 93 to 95 °C

Compound: O=C(O)c1c[nH]c(Br)c1
melting point: 119 to 121 °C

Compound: NC(=O)C(N)Cc1ccccc1 (configuration not stated)
melting point: 93 to 95 °C

Compound: CN(C)c1ccc(N2C(=O)C=CC2=O)cc1
melting point: 152 to 154 °C

Compound: COC(=O)Cc1csc(N)n1
melting point: 123 to 125 °C

Compound: O=S1(=O)Cc2ccc(Cl)cc2N1
melting point: 149 to 151 °C

Compound: CCCOc1ccc(Cl)cc1C(=O)O
melting point: 59 to 61 °C

Compound: C1CC2OC1C1CNCC21 (configuration not stated)
melting point: 53 to 55 °C

Compound: N#Cc1ccc(Cc2cnc(N)s2)c(C(F)(F)F)c1
melting point: 196 to 198 °C

Compound: CC(C)(C)OC(=O)NC1(C(=O)O)CCOC(C)(C)C1 (configuration not stated)
melting point: 176 to 178 °C

Compound: O=Cc1cnn(-c2ccccc2)n1
melting point: 66 to 68 °C

Compound: Cc1nnc(S)n1CC(N)=O
melting point: 232 to 234 °C

Compound: Cc1c(N)cccc1S(C)(=O)=O
melting point: 117 to 119 °C

Compound: CN(C)CCCNS(=O)(=O)c1ccc(Cl)c([N+](=O)[O-])c1
melting point: 98 to 100 °C

Compound: O=C(CCCl)Nc1ccc(F)cc1
melting point: 109 to 111 °C

Compound: O=C(O)C1CC(=O)N(c2ccccc2Br)C1 (configuration not stated)
melting point: 177 to 179 °C

Compound: CC(C)n1ncc(C(=O)O)c1C1CC1
melting point: 99 to 101 °C

Compound: COC(=O)c1oc2ccccc2c1CBr
melting point: 104 to 106 °C

Compound: Cc1ccc(SC2=C(C(=O)O)CCCC2)cc1
melting point: 199 to 201 °C

Compound: Nc1cccc(COc2ccc3c(c2)OCO3)c1
melting point: 67 to 69 °C

Compound: O=C(O)COCc1nc2ccccc2c(=O)[nH]1
melting point: 259 to 261 °C

Compound: Cn1ccnc1C(O)CCc1ccccc1 (configuration not stated)
melting point: 101 to 103 °C

Compound: CC(C)(C)n1cc(C(=O)O)c(-c2ccc(F)cc2F)n1
melting point: 145 to 147 °C

Compound: O=Cc1ccc(-c2ccc(F)cc2)s1
melting point: 111 to 113 °C

Compound: Cc1ccc(-n2nc(C(=O)O)c3c2CCC3)cc1
melting point: 224 to 226 °C

Compound: CCCNC(=O)C1CNc2ccccc2O1 (configuration not stated)
melting point: 129 to 131 °C

Compound: COc1ccc(Cl)cc1CS(=O)(=O)Cl
melting point: 69 to 71 °C

Compound: Cc1cc(NCc2ccco2)ncn1
melting point: 95 to 97 °C

Compound: CN(C)C(C)(C(=O)O)c1ccc(Cl)cc1 (configuration not stated)
melting point: 239 to 241 °C

Compound: O=C(c1cccnc1Cl)N1CCCC1
melting point: 77 to 79 °C

Compound: Cc1cc(C#N)ccc1N1CC2CCC1C2 (configuration not stated)
melting point: 69 to 71 °C

Compound: CC(C)C(N)=S
melting point: 42 to 44 °C

Compound: Nc1cccc(-c2ccc3c(c2)CCO3)c1
melting point: 64 to 66 °C

Compound: Oc1nnc(-c2ccccc2)c(-c2ccccc2)n1
melting point: 222 to 224 °C

Compound: N#Cc1ccc(N2N=C(c3ccccc3)CC2=O)cc1
melting point: 211 to 213 °C

Compound: CCOC(=O)CN1CCN(S(=O)(=O)c2ccccc2)CC1
melting point: 75 to 77 °C

Compound: CC(C)(C)OC(=O)NCc1nc(-c2ccc(N)cc2)n[nH]1
melting point: 214 to 216 °C

Compound: O=C(O)CC(Cc1ccccc1)Cc1ccccc1
melting point: 82 to 84 °C

Compound: Cc1ccccc1C(N)CC(=O)O (configuration not stated)
melting point: 225 to 227 °C

Compound: CCOC(=O)c1c(N)c(C#N)cn1C
melting point: 159 to 161 °C

Compound: NC(=S)c1ccc(NC(=O)C2CC2)cc1
melting point: 179 to 181 °C

Compound: COC(=O)c1cnn2c1CCCC2
melting point: 64 to 66 °C

Compound: CC(C)CCn1cc(C(=O)O)nn1
melting point: 187 to 189 °C

Compound: O=C(O)CCCS(=O)c1ccc(Br)cc1 (configuration not stated)
melting point: 121 to 123 °C

====

# melting point per entry
Endpoint name: melting point

Molecule: NNC(=O)c1cc2ccccc2o1
Endpoint name: melting point
Reported: 171 to 173 °C
//
Molecule: O=C(O)c1cn(-c2ccccc2)nn1
Endpoint name: melting point
Reported: 138 to 140 °C
//
Molecule: Nc1nc2ccc(SC(F)F)cc2s1
Endpoint name: melting point
Reported: 105 to 107 °C
//
Molecule: COc1cc(C(=O)O)ccc1OCc1cccnc1
Endpoint name: melting point
Reported: 179 to 181 °C
//
Molecule: COCCN(CCOC)S(=O)(=O)c1ccc(C(=O)O)cc1
Endpoint name: melting point
Reported: 147 to 149 °C
//
Molecule: Cc1cc(S(=O)(=O)Cl)cc(C(=O)O)c1F
Endpoint name: melting point
Reported: 169 to 171 °C
//
Molecule: OCCc1ccc2ccccc2c1
Endpoint name: melting point
Reported: 66 to 68 °C
//
Molecule: CC(=O)NC(CC(=O)O)c1ccc(F)cc1F (centres undefined)
Endpoint name: melting point
Reported: 149 to 151 °C
//
Molecule: O=S(=O)(O)c1ccnc2ccccc12
Endpoint name: melting point
Reported: 317 to 319 °C
//
Molecule: CC(=O)c1cnc2ccsc2c1
Endpoint name: melting point
Reported: 132 to 134 °C
//
Molecule: O=C(O)CCCc1ccc(Cl)c(Cl)c1
Endpoint name: melting point
Reported: 69 to 71 °C
//
Molecule: CC(NC(=O)c1ccc(S(=O)(=O)N(C)C)cc1)C(=O)O (centres undefined)
Endpoint name: melting point
Reported: 180 to 182 °C
//
Molecule: CCCc1[nH]nc(C(=O)O)c1[N+](=O)[O-]
Endpoint name: melting point
Reported: 158 to 160 °C
//
Molecule: CC(C)(C)OC(=O)NCC(N)C1CCCCC1 (centres undefined)
Endpoint name: melting point
Reported: 47 to 49 °C
//
Molecule: Cn1ccc(NC(=O)CC#N)n1
Endpoint name: melting point
Reported: 159 to 161 °C
//
Molecule: CC(C)(C)n1ncc(C#N)c1N
Endpoint name: melting point
Reported: 90 to 92 °C
//
Molecule: Nn1cnnc1-c1ccccc1
Endpoint name: melting point
Reported: 115 to 117 °C
//
Molecule: O=Cc1csc(-c2ncccn2)n1
Endpoint name: melting point
Reported: 197 to 199 °C
//
Molecule: CC(C)C(Br)C(=O)Nc1ccc2c(c1)CCC2 (centres undefined)
Endpoint name: melting point
Reported: 124 to 126 °C
//
Molecule: Cc1nn(CC(=O)O)c(C)c1[N+](=O)[O-]
Endpoint name: melting point
Reported: 179 to 181 °C
//
Molecule: O=C1NC(=O)c2cnccc21
Endpoint name: melting point
Reported: 233 to 235 °C
//
Molecule: Cc1[nH]nc2ncc(C(=O)O)cc12
Endpoint name: melting point
Reported: 337 to 339 °C
//
Molecule: CN(C)S(=O)(=O)c1ccc(=O)[nH]c1
Endpoint name: melting point
Reported: 212 to 216 °C
//
Molecule: O=C1CC(c2ccccn2)CN1 (centres undefined)
Endpoint name: melting point
Reported: 79 to 81 °C
//
Molecule: CC1=NN(C2CCS(=O)(=O)C2)C(=O)C1 (centres undefined)
Endpoint name: melting point
Reported: 185 to 187 °C
//
Molecule: COc1cc(CN)c2ccccc2n1
Endpoint name: melting point
Reported: 79 to 81 °C
//
Molecule: Nc1nc(-c2cccc(O)c2)cs1
Endpoint name: melting point
Reported: 151 to 153 °C
//
Molecule: Cc1cc(Br)cc(C)c1C(=O)O
Endpoint name: melting point
Reported: 184 to 186 °C
//
Molecule: COc1cc(OC)c([N+](=O)[O-])cc1F
Endpoint name: melting point
Reported: 152 to 154 °C
